- tested_on: human LAP-TGFβ1 expressed on P3U1 cells (human, UniProt P01137 30-390)
- Sequence (P01137 30-390): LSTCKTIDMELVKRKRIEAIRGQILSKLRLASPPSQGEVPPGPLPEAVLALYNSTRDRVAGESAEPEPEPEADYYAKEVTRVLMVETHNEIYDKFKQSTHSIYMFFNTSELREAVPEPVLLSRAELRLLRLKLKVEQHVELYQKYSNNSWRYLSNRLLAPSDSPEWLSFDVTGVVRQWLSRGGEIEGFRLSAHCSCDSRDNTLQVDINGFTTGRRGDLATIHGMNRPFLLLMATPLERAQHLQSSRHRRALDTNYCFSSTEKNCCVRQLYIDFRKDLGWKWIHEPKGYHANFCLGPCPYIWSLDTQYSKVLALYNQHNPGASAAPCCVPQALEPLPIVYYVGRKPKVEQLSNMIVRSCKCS
- test_description: cell-based or functional assay
Exercise: state measured ELISA assay #1 EC50 for each of the binders provided.
Give the number; µg/mL is assumed, so skip it.

Query string: Any idea what ELISA assay #1 EC50 was measured for 09BLM (antibody, human IgG1, kappa, L234A L235A, V domains shown) VH: EVQLVQSGAEVKKPGASVKVSCKASGYTFTSYDMHWVRQAPGQGLEWMGRIDPISGGIKYAQKFQGRATLTVDTSTSTAYMELSRLRSDDTAVYYCARWDYGGYFDVWGQGTLVTVSS VL: DIQMTQSPSSLSASVGDRVTITCRASQDIFNYLNWYQQKPGKAVKLLIYYTSHLETGVPSRFSGSGSGTDYTLTISSLQPEDFATYFCQQGDTLPWTFGQGTKLEIKR ?
Result string: 0.0295

Query string: Any idea what ELISA assay #1 EC50 was measured for 07BLM (antibody, human IgG1, kappa, L234A L235A, V domains shown, IgG1 L234A L235A D265S/kappa; also called 70BLH; 43BMD) VH: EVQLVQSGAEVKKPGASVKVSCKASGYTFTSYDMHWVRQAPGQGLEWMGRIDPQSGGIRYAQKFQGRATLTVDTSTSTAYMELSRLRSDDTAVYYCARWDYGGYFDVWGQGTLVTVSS VL: DIQMTQSPSSLSASVGDRVTITCRASQDIYSYLNWYQQKPGKAVKLLIYYTSNLETGVPSRFSGSGSGTDYTLTISSLQPEDFATYFCQQGDTLPWTFGQGTKLEIKR ?
Result string: 0.0332

Query string: Any idea what ELISA assay #1 EC50 was measured for 16BLM (antibody, human IgG1, kappa, L234A L235A, V domains shown, IgG1 L234A L235A D265S/kappa; also called 79BLH; 52BMD) VH: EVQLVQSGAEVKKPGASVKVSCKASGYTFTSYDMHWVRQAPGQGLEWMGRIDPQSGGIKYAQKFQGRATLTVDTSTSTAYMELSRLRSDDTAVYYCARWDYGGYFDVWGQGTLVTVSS VL: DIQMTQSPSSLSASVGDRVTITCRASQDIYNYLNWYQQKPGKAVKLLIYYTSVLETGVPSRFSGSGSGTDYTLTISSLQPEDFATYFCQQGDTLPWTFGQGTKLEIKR ?
Result string: 0.0816

Query string: Any idea what ELISA assay #1 EC50 was measured for 15BLM (antibody, human IgG1, kappa, L234A L235A, V domains shown, IgG1 L234A L235A D265S/kappa; also called 78BLH; 51BMD) VH: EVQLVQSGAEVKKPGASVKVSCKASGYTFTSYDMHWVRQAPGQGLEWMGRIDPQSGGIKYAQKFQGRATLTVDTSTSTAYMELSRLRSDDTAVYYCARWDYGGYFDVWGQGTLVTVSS VL: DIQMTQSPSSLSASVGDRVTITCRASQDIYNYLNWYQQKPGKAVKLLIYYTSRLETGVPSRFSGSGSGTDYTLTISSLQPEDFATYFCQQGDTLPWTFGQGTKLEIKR ?
Result string: 0.219

The measured values listed here are drawn from patent US20230272056A1.
